Data origin, for the record: ChEMBL document CHEMBL1129838

# MEASUREMENT_TARGET: Human immunodeficiency virus type 1 protease (Human immunodeficiency virus 1)
ATTRIBUTE_MEASURED: pKi
Answers are plain numbers, as −log10 of the molar value.

O=c1cc(C(CC2CC2)CC2CC2)oc(O)c1C(c1cccc(NS(=O)(=O)c2ccccn2)c1)C1CC1 (centres undefined): 9.18
O=c1cc(C(CC2CC2)CC2CC2)oc(O)c1C(c1cccc(CS(=O)(=O)c2ccc(F)cc2)c1)C1CC1 (centres undefined): 7.72
Cn1ccnc1S(=O)(=O)Cc1cccc(C(c2c(O)cc(C(CC3CC3)CC3CC3)oc2=O)C2CC2)c1 (centres undefined): 8.51
Cn1ccnc1S(=O)(=O)Nc1cccc(C(c2c(O)cc(C(CC3CC3)CC3CC3)oc2=O)C2CC2)c1 (centres undefined): 9.14
Cn1ccnc1S(=O)(=O)Nc1cccc(C(c2c(O)c3c(oc2=O)CCCCCC3)C2CC2)c1 (centres undefined): 8.96

Look at each compound and report its pKi.
1. O=C(O)c1ccc(S(=O)(=O)Cc2cccc(C(c3c(O)c4c(oc3=O)CCCCCC4)C3CC3)c2)cc1 (centres undefined)
2. O=c1c2c(oc(O)c1C(c1cccc(NS(=O)(=O)c3ccccn3)c1)C1CC1)CCCCCC2 (centres undefined)
3. O=c1c2c(oc(O)c1C(c1cccc(CS(=O)(=O)c3ccccc3)c1)C1CC1)CCCCCC2 (centres undefined)
4. Cn1ccnc1S(=O)(=O)Cc1cccc(C(c2c(O)c3c(oc2=O)CCCCCC3)C2CC2)c1 (centres undefined)
5. N#Cc1ccc(S(=O)(=O)Cc2cccc(C(c3c(O)oc4c(c3=O)CCCCCC4)C3CC3)c2)cc1 (centres undefined)
6. O=c1cc(C(CC2CC2)CC2CC2)oc(O)c1C(c1cccc(CS(=O)(=O)c2ccccn2)c1)C1CC1 (centres undefined)
7. O=c1c2c(oc(O)c1C(c1cccc(CS(=O)(=O)c3ccc(F)cc3)c1)C1CC1)CCCCCC2 (centres undefined)
8. Cc1ccc(S(=O)(=O)Cc2cccc(C(c3c(O)c4c(oc3=O)CCCCCC4)C3CC3)c2)cc1 (centres undefined)

output:
8.15
9.07
8.22
8.52
8.72
8.64
8.68
8.39

input: Look up and state reported pKi for O=c1c2c(oc(O)c1C(c1cccc(CS(=O)(=O)c3ccccn3)c1)C1CC1)CCCCCC2 (centres undefined)
output: 8.72
